biological target: Metabotropic glutamate receptor 5 (Rattus norvegicus); assay: Antagonist activity at rat mGlu5 receptor expressed in HEK293 cells assessed as inhibition of glutamate-induced response; format: functional, cell-based; conditions: read-out: IC50
As shown below, each of these molecules has a reported IC50 value.
Measured Attribute: IC50 (nM)

>>> recorded_measurement("CCOc1ncc(C#Cc2cccc(C)c2)cn1")
21.1
>>> recorded_measurement("C(#Cc1cncnc1)c1ccccc1")
486
>>> recorded_measurement("Cc1cccc(C#Cc2ncccn2)c1")
10.8
>>> recorded_measurement("C(#Cc1ncccn1)c1ccccc1")
195
>>> recorded_measurement("Cc1cccc(C#Cc2cncnc2)c1")
7.5

###

target: Metabotropic glutamate receptor 7 (Homo sapiens); experiment: Antagonist activity at mGlu7 receptor
Sequence (Q14831 whole entry): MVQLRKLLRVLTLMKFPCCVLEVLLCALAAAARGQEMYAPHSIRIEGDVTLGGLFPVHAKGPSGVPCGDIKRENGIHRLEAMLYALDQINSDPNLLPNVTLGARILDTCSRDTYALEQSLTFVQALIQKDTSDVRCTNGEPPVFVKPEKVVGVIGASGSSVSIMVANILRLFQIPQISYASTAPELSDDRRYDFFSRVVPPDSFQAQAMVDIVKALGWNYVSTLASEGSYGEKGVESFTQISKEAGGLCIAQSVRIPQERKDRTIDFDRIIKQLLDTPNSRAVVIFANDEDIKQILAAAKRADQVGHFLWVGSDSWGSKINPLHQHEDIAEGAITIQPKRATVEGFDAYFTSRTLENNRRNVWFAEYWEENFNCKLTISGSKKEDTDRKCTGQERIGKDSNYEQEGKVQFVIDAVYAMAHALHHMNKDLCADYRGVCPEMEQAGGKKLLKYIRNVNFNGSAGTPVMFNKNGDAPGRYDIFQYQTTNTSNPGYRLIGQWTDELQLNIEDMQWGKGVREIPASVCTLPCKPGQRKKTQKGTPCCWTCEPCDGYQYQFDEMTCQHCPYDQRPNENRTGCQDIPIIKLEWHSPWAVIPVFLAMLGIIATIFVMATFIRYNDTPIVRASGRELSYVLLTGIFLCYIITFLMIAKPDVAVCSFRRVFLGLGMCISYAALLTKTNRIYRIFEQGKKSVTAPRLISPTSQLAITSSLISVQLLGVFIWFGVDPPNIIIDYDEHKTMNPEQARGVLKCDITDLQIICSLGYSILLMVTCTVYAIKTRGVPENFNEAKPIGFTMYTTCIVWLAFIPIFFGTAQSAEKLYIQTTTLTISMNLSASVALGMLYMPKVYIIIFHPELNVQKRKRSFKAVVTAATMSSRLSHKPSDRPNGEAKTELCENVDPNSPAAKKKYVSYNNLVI
As shown below, each of these compounds has a reported IC50 value.
Measured Attribute: IC50

>>> recorded_measurement("CNc1ncc(C#Cc2ccccc2)cn1")
"> 10 µM"
>>> recorded_measurement("Cc1cccc(C#Cc2ncccn2)c1")
"> 10 µM"

###

biological target: UniProt Q13255; test: Antagonist activity at mGlu1 receptor
Sequence (Q13255 whole entry): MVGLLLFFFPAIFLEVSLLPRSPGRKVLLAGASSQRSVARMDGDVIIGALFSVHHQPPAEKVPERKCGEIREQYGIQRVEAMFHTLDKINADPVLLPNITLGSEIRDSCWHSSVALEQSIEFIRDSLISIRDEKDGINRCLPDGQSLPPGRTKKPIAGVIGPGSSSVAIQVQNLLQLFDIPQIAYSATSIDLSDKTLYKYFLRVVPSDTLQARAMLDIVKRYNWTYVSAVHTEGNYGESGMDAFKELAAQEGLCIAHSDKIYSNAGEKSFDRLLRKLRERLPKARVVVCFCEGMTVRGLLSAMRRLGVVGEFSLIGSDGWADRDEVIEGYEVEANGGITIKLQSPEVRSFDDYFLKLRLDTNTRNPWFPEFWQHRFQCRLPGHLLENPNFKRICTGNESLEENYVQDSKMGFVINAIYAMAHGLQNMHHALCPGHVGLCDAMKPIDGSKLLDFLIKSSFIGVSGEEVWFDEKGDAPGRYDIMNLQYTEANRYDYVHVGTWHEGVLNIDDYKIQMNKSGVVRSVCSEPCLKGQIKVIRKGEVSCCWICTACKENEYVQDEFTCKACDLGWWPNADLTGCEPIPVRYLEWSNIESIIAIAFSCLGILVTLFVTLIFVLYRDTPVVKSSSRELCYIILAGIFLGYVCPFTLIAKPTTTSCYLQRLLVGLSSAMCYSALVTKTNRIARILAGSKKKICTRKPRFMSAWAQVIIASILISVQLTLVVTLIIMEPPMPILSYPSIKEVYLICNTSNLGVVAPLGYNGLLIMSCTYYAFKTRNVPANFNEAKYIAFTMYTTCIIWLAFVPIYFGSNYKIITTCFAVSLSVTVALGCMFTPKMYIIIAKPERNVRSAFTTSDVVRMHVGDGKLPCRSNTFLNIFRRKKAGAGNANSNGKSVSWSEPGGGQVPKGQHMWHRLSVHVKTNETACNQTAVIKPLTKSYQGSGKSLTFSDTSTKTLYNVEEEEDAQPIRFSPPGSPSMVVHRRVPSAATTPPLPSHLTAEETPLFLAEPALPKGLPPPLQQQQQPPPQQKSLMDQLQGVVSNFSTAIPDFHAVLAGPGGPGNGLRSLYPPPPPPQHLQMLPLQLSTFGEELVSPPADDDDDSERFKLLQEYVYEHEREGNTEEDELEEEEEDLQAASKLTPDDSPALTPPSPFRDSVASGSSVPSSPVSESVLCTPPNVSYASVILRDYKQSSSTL
Measured Attribute: IC50

>>> recorded_measurement("Cc1cccc(C#Cc2ncccn2)c1")
"> 10 µM"
>>> recorded_measurement("CNc1ncc(C#Cc2ccccc2)cn1")
"> 10 µM"

###

biological target: UniProtKB P31424; test: Positive allosteric modulator activity at rat mGlu5 receptor expressed in HEK293 cells assessed as fold shift in glutamate induced response at 10 uM; format: cell-based
Measured Attribute: fold change (FC)

>>> recorded_measurement("CSc1ncc(C#Cc2ccccc2)cn1")
11
>>> recorded_measurement("CNc1ncc(C#Cc2cccc(C)c2)cn1")
5.9
>>> recorded_measurement("CNc1ncc(C#Cc2ccccc2)cn1")
15
>>> recorded_measurement("Cc1ccc(C#Cc2cncnc2)cc1")
4.2
>>> recorded_measurement("CC(C)(C)c1ncc(C#Cc2ccccc2)cn1")
6
>>> recorded_measurement("CNc1ncc(C#Cc2ccc(C)cc2)cn1")
5.7

###

molecular target: Metabotropic glutamate receptor 5 (Rattus norvegicus, UniProt P31424); experiment: Positive allosteric modulator activity at rat mGlu5 receptor expressed in HEK293 cells assessed as potentiation of glutamate-induced response relative to glutamate; type: cell-based; conditions: read-out: EC50
Sequence (P31424 whole entry): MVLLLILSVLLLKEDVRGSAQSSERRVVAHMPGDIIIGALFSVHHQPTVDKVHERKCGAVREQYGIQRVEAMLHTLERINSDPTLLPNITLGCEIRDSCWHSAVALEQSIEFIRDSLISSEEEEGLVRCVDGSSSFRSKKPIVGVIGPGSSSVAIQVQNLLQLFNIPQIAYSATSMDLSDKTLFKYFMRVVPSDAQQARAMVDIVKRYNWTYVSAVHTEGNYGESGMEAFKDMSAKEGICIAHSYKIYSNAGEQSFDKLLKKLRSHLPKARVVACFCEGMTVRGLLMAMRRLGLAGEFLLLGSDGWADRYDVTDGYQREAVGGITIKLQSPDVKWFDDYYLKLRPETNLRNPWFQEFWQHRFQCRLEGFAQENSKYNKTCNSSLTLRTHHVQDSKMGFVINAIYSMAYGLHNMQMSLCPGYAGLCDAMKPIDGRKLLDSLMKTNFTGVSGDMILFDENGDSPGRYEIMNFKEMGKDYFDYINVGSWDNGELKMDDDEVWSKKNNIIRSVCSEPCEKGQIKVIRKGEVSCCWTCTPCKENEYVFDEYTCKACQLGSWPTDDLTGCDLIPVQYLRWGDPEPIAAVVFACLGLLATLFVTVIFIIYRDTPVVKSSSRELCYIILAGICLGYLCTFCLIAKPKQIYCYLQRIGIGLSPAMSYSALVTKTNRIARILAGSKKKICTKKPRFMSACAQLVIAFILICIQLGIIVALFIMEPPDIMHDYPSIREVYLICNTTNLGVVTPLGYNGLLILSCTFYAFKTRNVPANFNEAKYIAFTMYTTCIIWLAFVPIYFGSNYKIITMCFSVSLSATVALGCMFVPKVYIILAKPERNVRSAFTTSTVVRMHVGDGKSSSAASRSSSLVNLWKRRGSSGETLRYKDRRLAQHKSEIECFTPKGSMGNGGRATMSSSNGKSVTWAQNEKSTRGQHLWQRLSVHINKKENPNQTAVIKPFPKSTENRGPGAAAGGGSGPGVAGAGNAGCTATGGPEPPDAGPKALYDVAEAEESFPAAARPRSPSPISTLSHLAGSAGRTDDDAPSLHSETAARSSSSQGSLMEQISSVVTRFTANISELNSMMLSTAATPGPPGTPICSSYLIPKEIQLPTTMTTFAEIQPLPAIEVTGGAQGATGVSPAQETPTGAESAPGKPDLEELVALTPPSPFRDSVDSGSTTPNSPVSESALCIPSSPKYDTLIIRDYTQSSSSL
One threshold, 0.1 µM, splits the recorded EC50 values: lower ones are fulfilled, equal or higher ones are not fulfilled.

>>> assigned_label("CC(C)(C)c1ncc(C#Cc2ccccc2)cn1")
"not fulfilled"
>>> assigned_label("CNc1ncc(C#Cc2ccc(C)cc2)cn1")
"not fulfilled"
>>> assigned_label("CNc1ncc(C#Cc2ccccc2)cn1")
"fulfilled"
>>> assigned_label("CSc1ncc(C#Cc2ccccc2)cn1")
"not fulfilled"
>>> assigned_label("CNc1ncc(C#Cc2cccc(C)c2)cn1")
"fulfilled"

Source: ChEMBL document CHEMBL1137787
